Can you tell me KIDNEY_TOTAL for the items I'm about to list?
# Species on record: Rattus norvegicus
# method.notes: Open TG-GATES - Regimen: Daily Repeat
# Assay type: toxicity, organism-based, Sprague-Dawley
# Design: regimen Daily Repeat, gender Male, age 6 weeks
# measurement.context: in vivo, po, 0 mg/kg, […], tissue Kidney, route gavage, dose level Control, time 14 day

IN: Input CC(C)(S)[C@@H](N)C(=O)O , output reported KIDNEY_TOTAL.
OUT: 2.6 g

IN: Answer with the recorded KIDNEY_TOTAL of C[C@]12CCC(=O)C=C1CC[C@@H]1[C@@H]2CC[C@@]2(C)[C@H]1CC[C@]2(C)O only.
OUT: 2.5 g

IN: Give the reported KIDNEY_TOTAL for this compound. CCSCC[C@H](N)C(=O)O
OUT: 2.4 g

IN: Kindly indicate its recorded KIDNEY_TOTAL. Item: CCN1CCCC1CNC(=O)c1cc(S(N)(=O)=O)ccc1OC (centres undefined) [SULPIRIDE]
OUT: 2.4 g

IN: Respond only with KIDNEY_TOTAL recorded for CCc1oc2ccccc2c1C(=O)c1cc(I)c(O)c(I)c1
OUT: 2.6 g

IN: Tell me KIDNEY_TOTAL reported for C[C@](N)(Cc1ccc(O)c(O)c1)C(=O)O
OUT: 2.2 g

IN: In one line, give reported KIDNEY_TOTAL of the entry Nc1nc(N)c2nc(-c3ccccc3)c(N)nc2n1 .
OUT: 2.4 g

IN: Check the records and state KIDNEY_TOTAL for CC(C)C(=O)Nc1ccc([N+](=O)[O-])c(C(F)(F)F)c1 [FLUTAMIDE]
OUT: 2.5 g

IN: Fill in KIDNEY_TOTAL for record CCC(C)(C)C(=O)O[C@H]1C[C@@H](C)C=C2C=C[C@H](C)[C@H](CC[C@@H]3C[C@@H](O)CC(=O)O3)[C@H]21
OUT: 2.5 g

---

# Organism: Rattus norvegicus
# method.notes: Open TG-GATES - Regimen: Single
# Assay type: toxicity, organism-based, Sprague-Dawley
# Set-up: regimen Single, gender Male, age 6 weeks
# measurement.context: in vivo, po, 0 mg/kg, 9 h, tissue Plasma, route gavage, dose level Control
metric.name: CRE (mg/dL)
The answer is to be given in mg/dL; state only the numeric part.

IN: State its CRE for this compound: CC(C)(S)[C@@H](N)C(=O)O [PENICILLAMINE]
OUT: 0.1

IN: Tell me its CRE given CCN1CCCC1CNC(=O)c1cc(S(N)(=O)=O)ccc1OC (stereo not given) [SULPIRIDE] as the entry.
OUT: 0.2

IN: Name the recorded CRE of the item CN1C(=O)OC(C)(C)C1=O [TRIMETHADIONE] in your answer.
OUT: 0.2

IN: Kindly indicate its recorded CRE. Item: CC(=O)Oc1cc(C(C)C)c(OCCN(C)C)cc1C [MOXISYLYTE]
OUT: 0.1

IN: For CCc1oc2ccccc2c1C(=O)c1cc(I)c(O)c(I)c1 [BENZIODARONE] , write its CRE.
OUT: 0.5

---

# Species: Rattus norvegicus
# method.notes: Open TG-GATES - Regimen: Daily Repeat
# Format: toxicity, organism-based, Sprague-Dawley
# Set-up: regimen Daily Repeat, gender Male, age 6 weeks
# measurement.context: in vivo, po, 0 mg/kg, 72 h, tissue Plasma, route gavage, dose level Control, time 3 day
metric.name: AST (IU/L)
Value expressed in IU/L; do not type the unit.

IN: Look up AST of CCSCC[C@H](N)C(=O)O and report it.
OUT: 68

IN: Tell me AST reported for Nc1nc(N)c2nc(-c3ccccc3)c(N)nc2n1
OUT: 69.4

IN: Fill in reported AST for this entry: CC(C)(S)[C@@H](N)C(=O)O
OUT: 69

IN: Query AST for CC(=O)Oc1cc(C(C)C)c(OCCN(C)C)cc1C
OUT: 70.4

---

For each of the molecules below, state its WBC.
# Species on record: Rattus norvegicus
# method.notes: Open TG-GATES - Regimen: Daily Repeat
# Type: toxicity, organism-based, Sprague-Dawley
# Set-up: regimen Daily Repeat, gender Male, age 6 weeks
# measurement.context: in vivo, po, 100 mg/kg, […], tissue Blood, route gavage, dose level Low, time 14 day
Be sure to follow the number with its unit.

IN: Fill in reported WBC for this entry: CCN1CCCC1CNC(=O)c1cc(S(N)(=O)=O)ccc1OC (stereo not drawn) [SULPIRIDE]
OUT: 97.2 x10_2/uL

IN: Assign WBC to the following record: O=C(N[C@H](CO)[C@H](O)c1ccc([N+](=O)[O-])cc1)C(Cl)Cl
OUT: 96.2 x10_2/uL

IN: Provide only the value of recorded WBC for CC(C)(S)[C@@H](N)C(=O)O
OUT: 83.6 x10_2/uL

---

# Species on record: Rattus norvegicus
# method.notes: Open TG-GATES - Regimen: Daily Repeat
# Format: toxicity, organism-based, Sprague-Dawley
# Parameters: regimen Daily Repeat, gender Male, age 6 weeks
# measurement.context: in vivo, po, 0 mg/kg, […], tissue Plasma, route gavage, dose level Control, time 14 day
metric.name: AST (IU/L)
Answer format: numeric, IU/L implied, no suffix.

IN: Please supply the value of reported AST for the item CCC(C)(C)C(=O)O[C@H]1C[C@@H](C)C=C2C=C[C@H](C)[C@H](CC[C@@H]3C[C@@H](O)CC(=O)O3)[C@H]21 [SIMVASTATIN]
OUT: 64.2

IN: Identify measured AST corresponding to CCSCC[C@H](N)C(=O)O [ETHIONINE]
OUT: 60.6

IN: Return reported AST. Input compound: CCN1CCCC1CNC(=O)c1cc(S(N)(=O)=O)ccc1OC (stereo not drawn) [SULPIRIDE]
OUT: 68.8

---

# Species on record: Rattus norvegicus
# method.notes: Open TG-GATES - Regimen: Daily Repeat
# Assay type: toxicity, organism-based, Sprague-Dawley
# Set-up: regimen Daily Repeat, gender Male, age 6 weeks
# measurement.context: in vivo, po, 0 mg/kg, […], tissue Blood, route gavage, dose level Control, time 14 day
Please go through the items and note down their MCHC.
The reply should contain only the number, in %.

IN: Give MCHC for the following compound: Nc1nc(N)c2nc(-c3ccccc3)c(N)nc2n1
OUT: 33

IN: Tell me measured MCHC for CCSCC[C@H](N)C(=O)O please.
OUT: 34.5

IN: Answer with the recorded MCHC for the compound listed here: C[C@](N)(Cc1ccc(O)c(O)c1)C(=O)O
OUT: 35

IN: Using the record for O=C(O)c1cccnc1 , state its measured MCHC.
OUT: 34.2

---

Would you mind telling me the reported MCHC of each entry?
# Species: Rattus norvegicus
# method.notes: Open TG-GATES - Regimen: Daily Repeat
# Assay type: toxicity, organism-based, Sprague-Dawley
# Design: regimen Daily Repeat, gender Male, age 6 weeks
# measurement.context: in vivo, po, 0 mg/kg, […], tissue Blood, route gavage, dose level Control, time 28 day
Numbers only here, please. The scale is %.

IN: Identify the reported MCHC for the following entry. C[C@]12CCC(=O)C=C1CC[C@@H]1[C@@H]2CC[C@@]2(C)[C@H]1CC[C@]2(C)O [METHYLTESTOSTERONE]
OUT: 35.4

IN: Quote MCHC reported for Oc1ncnc2[nH]ncc12 [ALLOPURINOL] please.
OUT: 33.5

IN: Quickly give me recorded MCHC for C#C[C@]1(O)CC[C@H]2[C@@H]3CCc4cc(O)ccc4[C@H]3CC[C@@]21C [ETHINYL ESTRADIOL]
OUT: 35.3

IN: Name the recorded MCHC of the molecule listed here: O=C(N[C@H](CO)[C@H](O)c1ccc([N+](=O)[O-])cc1)C(Cl)Cl [CHLORAMPHENICOL]
OUT: 34.3

IN: Please supply the value of reported MCHC for the item CC(C)(S)[C@@H](N)C(=O)O [PENICILLAMINE]
OUT: 34.2

---

Task for the reader: assign each of the following molecules its reported RBC.
# Organism: Rattus norvegicus
# method.notes: Open TG-GATES - Regimen: Single
# Type: toxicity, organism-based, Sprague-Dawley
# Set-up: regimen Single, gender Male, age 6 weeks
# measurement.context: in vivo, po, 0 mg/kg, 24 h, tissue Blood, route gavage, dose level Control
Answer format reminder: number followed by unit.

IN: Given the molecule C[C@](N)(Cc1ccc(O)c(O)c1)C(=O)O , write its reported RBC.
OUT: 594.4 x10_4/ul

IN: Given O=C(N[C@H](CO)[C@H](O)c1ccc([N+](=O)[O-])cc1)C(Cl)Cl , respond with its RBC.
OUT: 614.4 x10_4/ul

IN: Return the recorded RBC value; entry: CN1C(=O)OC(C)(C)C1=O
OUT: 598 x10_4/ul

IN: Fill in RBC for record C#C[C@]1(O)CC[C@H]2[C@@H]3CCc4cc(O)ccc4[C@H]3CC[C@@]21C
OUT: 594.4 x10_4/ul

IN: Tell us which RBC value is on record for CC(=O)Oc1cc(C(C)C)c(OCCN(C)C)cc1C
OUT: 631.4 x10_4/ul

Numbers sourced from ChEMBL document CHEMBL3885861.
